# Test system: MDA-MB-231 cells
# measurement notes: MTT cytotoxicity in MDA-MB-231 cells
# Type: cell-based
# stated conditions: Homo sapiens, MDA-MB-231, normoxia 96 h, read-out: IC50 MDA-MB-231 Normoxia
Assignment: determine reported IC50 for the given compounds.

C[C@H]1[C@@H](OCc2cn(Cc3cc4cc(Br)ccc4oc3=O)nn2)O[C@@H]2O[C@@]3(C)CC[C@H]4[C@H](C)CC[C@@H]1[C@@]24OO3
> 100 µM

For each entry beneath this line, provide reported IC50.
1. C[C@H]1[C@@H](O)O[C@@H]2O[C@@]3(C)CC[C@H]4[C@H](C)CC[C@@H]1[C@@]24OO3 [DHA, Dihydroartemisinin]
2. C[C@H]1[C@@H](OCc2cn(Cc3cc4cc(Br)cc(Br)c4oc3=O)nn2)O[C@@H]2O[C@@]3(C)CC[C@H]4[C@H](C)CC[C@@H]1[C@@]24OO3
3. C[C@H]1[C@@H](OCCc2cn(Cc3cc4cc(Cl)ccc4oc3=O)nn2)O[C@@H]2O[C@@]3(C)CC[C@H]4[C@H](C)CC[C@@H]1[C@@]24OO3
4. Cc1cc(C)c2c(Cn3cc(CCO[C@H]4O[C@@H]5O[C@@]6(C)CC[C@H]7[C@H](C)CC[C@@H]([C@H]4C)[C@@]57OO6)nn3)cc(=O)oc2c1
5. Cc1cc(C)c2c(OCc3cn(CCO[C@H]4O[C@@H]5O[C@@]6(C)CC[C@H]7[C@H](C)CC[C@@H]([C@H]4C)[C@@]57OO6)nn3)cc(=O)oc2c1

["> 100 µM", "77.9 µM", "44 µM", "> 100 µM", "> 100 µM"]

Source: paper PMC6539525
